Data provenance is patent US20240409663A1.

# Test Target: human GPC3 on cells (human, UniProt P51654 25-554)
# Assay Summary: cell-based or functional assay
For each entry below, report its EC50 of ADCC signaling (Jurkat-hCD16a-NFAT luciferase reporter), Huh-7 cells value.
Entry rule: numbers only, all in nM.

Query :: Give EC50 of ADCC signaling (Jurkat-hCD16a-NFAT luciferase reporter), Huh-7 cells for the following binder: 52H5D3B8-6#-VH1+VL1 (antibody, V domains shown, humanized) VH: QVQLVQSGAEVKKPGASVKVSCKASGYTFTDYEMHWVRQAPGQGLEWMGAIHPGSGGTAYNQKFKGRVTMTRDTSTSTVYMELSSLRSEDTAVYYCARYYSYAYWGQGTLVTVSS VL: DIVMTQTPLSLSVTPGQPASISCRSSQSLVHSNGNTYLQWYLQKPGQSPQLLIYKVSNRFSGVPDRFSGSGSGTDFTLKISRVEAEDVGVYYCFQSIHVPYTFGGGTKLEIK
Result :: 0.322

Query :: Give EC50 of ADCC signaling (Jurkat-hCD16a-NFAT luciferase reporter), Huh-7 cells for the following binder: 52H5D3B8-19#-VH2+VL3 (antibody, V domains shown) VH: QVQLVQSGAEVKKPGASVKVSCKASGYTFTGYEMHWVRQAPGQGLEWIGAIHPGSGGTAYNQKFKGRVTMTADTSTSTVYMELSSLRSEDTAVYYCTRYYSYAYWGQGTLVTVSS VL: DIVMTQTPLSLSVTPGQPASISCRSSQSLVHSNGNTYLQWYLQKPGQSPKLLIYKVSNRFAGVPDRFSGSGSGTDFTLKISRVEAEDVGVYYCVESIHVPYTFGGGTKLEIK
Result :: 0.266

Query :: Give EC50 of ADCC signaling (Jurkat-hCD16a-NFAT luciferase reporter), Huh-7 cells for the following binder: 52H5D3B8-20#-VH2+VL3 (antibody, V domains shown) VH: QVQLVQSGAEVKKPGASVKVSCKASGYRFTDYEMHWVRQAPGQGLEWIGAIHPGSGGTAYNQLFKGRVTMTADTSTSTVYMELSSLRSEDTAVYYCTRYYSYAYWGQGTLVTVSS VL: DIVMTQTPLSLSVTPGQPASISCRSSQSLVHSNGNTYLQWYLQKPGQSPKLLIYKVSNRFPGVPDRFSGSGSGTDFTLKISRVEAEDVGVYYCVESIHVPYTFGGGTKLEIK
Result :: 0.124

Query :: Give EC50 of ADCC signaling (Jurkat-hCD16a-NFAT luciferase reporter), Huh-7 cells for the following binder: 52H5D3B8-18#-VH2+VL3 (antibody, V domains shown) VH: QVQLVQSGAEVKKPGASVKVSCKASGYTFTRYEMHWVRQAPGQGLEWIGAIHPGSGGTAYNSKFKGRVTMTADTSTSTVYMELSSLRSEDTAVYYCTRYYSYAYWGQGTLVTVSS VL: DIVMTQTPLSLSVTPGQPASISCRSSQSLVHSNGNTYLQWYLQKPGQSPKLLIYKVSNRYSGVPDRFSGSGSGTDFTLKISRVEAEDVGVYYCVESIHVPYTFGGGTKLEIK
Result :: 0.48
